Hey, just so you know, these numbers are from patent US20250170248A1.

- target: SMARCA2 (Homo sapiens, UniProt P51531)
- Sequence (P51531 whole entry): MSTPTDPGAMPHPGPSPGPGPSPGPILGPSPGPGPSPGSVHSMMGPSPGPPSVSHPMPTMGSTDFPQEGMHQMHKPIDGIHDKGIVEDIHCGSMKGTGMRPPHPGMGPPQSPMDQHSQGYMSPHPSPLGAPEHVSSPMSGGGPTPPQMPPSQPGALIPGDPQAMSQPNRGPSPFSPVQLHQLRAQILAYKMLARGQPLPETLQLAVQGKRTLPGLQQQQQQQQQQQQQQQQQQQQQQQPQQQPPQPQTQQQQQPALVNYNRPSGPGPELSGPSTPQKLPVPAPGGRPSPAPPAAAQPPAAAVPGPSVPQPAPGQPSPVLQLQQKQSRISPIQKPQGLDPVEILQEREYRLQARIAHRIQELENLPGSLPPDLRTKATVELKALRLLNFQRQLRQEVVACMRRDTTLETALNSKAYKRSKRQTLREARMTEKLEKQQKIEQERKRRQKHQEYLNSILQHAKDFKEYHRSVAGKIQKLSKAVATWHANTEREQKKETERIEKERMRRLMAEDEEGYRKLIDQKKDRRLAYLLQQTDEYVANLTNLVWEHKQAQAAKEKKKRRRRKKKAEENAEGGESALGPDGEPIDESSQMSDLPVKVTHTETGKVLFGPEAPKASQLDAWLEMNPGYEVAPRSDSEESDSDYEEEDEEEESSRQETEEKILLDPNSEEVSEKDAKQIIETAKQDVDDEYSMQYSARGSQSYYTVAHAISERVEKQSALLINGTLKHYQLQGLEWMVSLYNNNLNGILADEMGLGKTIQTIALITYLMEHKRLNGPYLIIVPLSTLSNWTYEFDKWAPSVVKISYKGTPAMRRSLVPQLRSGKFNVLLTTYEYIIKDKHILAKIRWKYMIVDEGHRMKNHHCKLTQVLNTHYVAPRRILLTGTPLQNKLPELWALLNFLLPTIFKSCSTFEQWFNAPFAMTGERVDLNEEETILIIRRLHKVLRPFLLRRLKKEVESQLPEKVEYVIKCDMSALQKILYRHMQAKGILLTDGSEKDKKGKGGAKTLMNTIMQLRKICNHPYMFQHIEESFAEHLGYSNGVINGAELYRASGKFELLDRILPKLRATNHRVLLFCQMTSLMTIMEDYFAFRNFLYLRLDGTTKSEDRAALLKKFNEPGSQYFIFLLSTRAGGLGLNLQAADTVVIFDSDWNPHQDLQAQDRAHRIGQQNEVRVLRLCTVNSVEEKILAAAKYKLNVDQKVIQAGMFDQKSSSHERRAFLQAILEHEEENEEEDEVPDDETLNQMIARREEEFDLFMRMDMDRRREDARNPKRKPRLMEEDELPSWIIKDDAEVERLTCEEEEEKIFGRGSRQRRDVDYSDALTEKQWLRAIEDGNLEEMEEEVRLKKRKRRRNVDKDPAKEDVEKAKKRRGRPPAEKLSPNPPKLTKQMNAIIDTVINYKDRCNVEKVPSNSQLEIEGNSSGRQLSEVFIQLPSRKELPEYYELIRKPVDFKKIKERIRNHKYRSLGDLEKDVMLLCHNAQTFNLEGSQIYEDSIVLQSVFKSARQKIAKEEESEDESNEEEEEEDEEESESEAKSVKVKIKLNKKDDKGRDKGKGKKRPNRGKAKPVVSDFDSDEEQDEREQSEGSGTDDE
- assay-protocol: SMARCA2 Western blot degradation in MV4-11 cells
- Type: cell-based
- Set-up: SMARCA2/SMARCA4 protein degradation selectivity in MV4-11 cells; endogenous in cells; host or cells: MV4-11
- measurement-setup: SMARCA2/4 selectivity, MV4-11 cells
measured-metric: Selectivity in MV411

The value of Selectivity in MV411 measured for the compound Cc1ncsc1-c1ccc(CNC(=O)[C@@H]2C[C@@H](O)CN2C(=O)[C@@H](NC(=O)[C@H]2CC3(CC[C@H](N4CCN(c5cnc(N6CCc7[nH]c8nnc(-c9ccccc9O)cc8c7[C@H]6C)nc5)CC4)CC3)C2)C(C)(C)C)cc1 (single isomer, unassigned) [I-79] turned out to be C (C (10-100 fold))

# compound C#Cc1ccc([C@H](C)NC(=O)[C@@H]2C[C@@H](O)CN2C(=O)[C@H](c2cc(OCCN3CCN4c5cc(-c6ccccc6O)nnc5NC[C@H]4C3)no2)C(C)C)cc1 (single isomer, unassigned) ; its Selectivity in MV411 = C (C (10-100 fold))
